Data provenance is paper PMC6152318.

# experimental.target: Human serum albumin (HSA) (Homo sapiens)
# Construct: Fatty acid free HSA and warfarin sodium were purchased from Sigma-Aldrich; purchased Sigma-Aldrich (St. Louis, MO, USA)
# Sequence (P02768 25-609): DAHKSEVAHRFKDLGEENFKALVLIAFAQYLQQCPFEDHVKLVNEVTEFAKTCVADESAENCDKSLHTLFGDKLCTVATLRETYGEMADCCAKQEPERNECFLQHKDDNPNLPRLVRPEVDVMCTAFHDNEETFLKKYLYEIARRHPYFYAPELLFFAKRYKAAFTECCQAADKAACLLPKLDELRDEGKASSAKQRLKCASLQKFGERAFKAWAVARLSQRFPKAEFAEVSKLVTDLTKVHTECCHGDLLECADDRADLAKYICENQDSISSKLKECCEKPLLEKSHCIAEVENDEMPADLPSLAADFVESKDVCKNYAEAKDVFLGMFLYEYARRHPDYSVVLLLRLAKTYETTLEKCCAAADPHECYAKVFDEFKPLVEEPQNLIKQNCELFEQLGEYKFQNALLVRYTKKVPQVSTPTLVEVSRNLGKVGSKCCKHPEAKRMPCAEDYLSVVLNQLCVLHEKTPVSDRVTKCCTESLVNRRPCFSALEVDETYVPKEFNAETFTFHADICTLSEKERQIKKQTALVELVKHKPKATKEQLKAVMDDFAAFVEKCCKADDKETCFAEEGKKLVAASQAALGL
# experiment.description: Binding constants by quenching of HSA tryptophan fluorescence
measured.metric: Kd (µM)
One number for each entry, in µM.

Solved entries (count: 3):
{"molecule": "O=c1c(O[C@@H]2O[C@H](CO)[C@H](O)[C@H](O)[C@H]2O)c(-c2ccc(O)c(O)c2)oc2cc(O)cc(O)c12 [Hyperoside]", "unit.abbreviation": "µM", "Kd": 30.9}
{"molecule": "O=c1c(O[C@@H]2O[C@H](CO)[C@@H](O)[C@H](O)[C@H]2O)c(-c2ccc(O)c(O)c2)oc2cc(O)cc(O)c12 [Isoquercitrin]", "unit.abbreviation": "µM", "Kd": 22.4}
{"molecule": "C[C@@H]1O[C@@H](OC[C@H]2O[C@@H](Oc3c(-c4ccc(O)c(O)c4)oc4cc(O)cc(O)c4c3=O)[C@H](O)[C@@H](O)[C@@H]2O)[C@H](O)[C@H](O)[C@H]1O [Rutin]", "unit.abbreviation": "µM", "Kd": 34.2}

Batch lookup, Kd per entry.
1. O=c1c(O)c(-c2ccc(O)c(O)c2)oc2cc(O)cc(O)c12 [Quercetin]
2. O=c1cc(-c2ccc(O)c(O)c2)oc2cc(O)cc(O)c12 [Luteolin]

1: 6.94; 2: 8.2

For the molecule O=c1cc(-c2ccc(O)c(O)c2)oc2cc(O)c([C@@H]3O[C@H](CO)[C@@H](O)[C@H](O)[C@H]3O)c(O)c12 [Isoorientin] , what Kd is on record?
21.9
